Data origin, for the record: ChEMBL document CHEMBL6153174

MEASUREMENT PROTOCOL: AUC (0 to t) in Sprague-Dawley rat at 10 mg/kg, iv measured upto 24 hrs by LC/MS/MS analysis
Format: ADME, organism-based
COND: Sprague-Dawley, in vivo
Each entry below carries its recorded AUC(0-t) at 24 h.
Note: unit ng·h/mL is implicit; provide only the numeric part.

CN1CCC(Nc2nc(-c3ccc(F)nc3)nc3c2ccn3CCCN2CCCC2)CC1 :: 2080

Now, please, on to the next compound.
Query block: Report AUC(0-t) at 24 h for CN1CCC(Nc2nc(-c3ccnc(F)c3)nc3c2ccn3CCCN2CCCC2)CC1 please.
Result block: 1010
